meta.source: patent US20110301335A1

# system under test: T1, human TNFR1 on MRC-5 cells (human, UniProt P19438 30-455)
# T1 sequence (looked up): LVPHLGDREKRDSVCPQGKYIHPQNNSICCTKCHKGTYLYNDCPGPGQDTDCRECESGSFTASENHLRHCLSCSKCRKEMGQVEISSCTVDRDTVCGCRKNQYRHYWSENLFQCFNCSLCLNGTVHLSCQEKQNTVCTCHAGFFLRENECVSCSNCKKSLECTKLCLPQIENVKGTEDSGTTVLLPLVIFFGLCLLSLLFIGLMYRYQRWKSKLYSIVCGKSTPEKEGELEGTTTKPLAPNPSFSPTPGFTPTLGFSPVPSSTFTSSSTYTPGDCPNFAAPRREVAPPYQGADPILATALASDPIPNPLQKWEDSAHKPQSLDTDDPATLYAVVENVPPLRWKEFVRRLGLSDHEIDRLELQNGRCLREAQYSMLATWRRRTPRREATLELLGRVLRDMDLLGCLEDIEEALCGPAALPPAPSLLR
# test protocol: cell-based or functional assay
recorded metric: ND50 (MRC5) (nM)

• DMS0184 (bispecific antibody) EVQLLESGGGLVQPGGSLRLSCAASGFTFVKYSMGWVRQAPGKGPEWVSQISNTGDRTYYADSVKGRFTISRDNSKNTLYLQMNSLRAEDTAVYYCAIYTGRWEPFDYWGQGTLVTVSSASTSGPSDIQMTQSPSSLSASVGDRVTITCRASRPIGTTLSWYQQKPGKAPKLLIWFGSRLQSGVPSRFSGSGSGTDFTLTISSLQPEDFATYYCAQAGTHPTTFGQGTKVEIKR = 19
